target: Bovine deoxyribonuclease I (Bos taurus)
Sequence (P00639 23-282): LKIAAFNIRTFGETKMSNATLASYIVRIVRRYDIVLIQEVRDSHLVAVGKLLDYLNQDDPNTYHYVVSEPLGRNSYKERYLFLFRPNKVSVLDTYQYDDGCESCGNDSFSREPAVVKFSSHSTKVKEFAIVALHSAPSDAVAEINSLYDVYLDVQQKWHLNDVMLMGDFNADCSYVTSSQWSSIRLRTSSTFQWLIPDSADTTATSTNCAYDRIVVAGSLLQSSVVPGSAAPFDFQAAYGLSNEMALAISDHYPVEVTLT
pIC50: −log10 of the molar value.
Measure name: pIC50

Output pIC50 of CCCCCCCC/C=C\CCCCCCCC(=O)Oc1cccc2c1C(=O)C=C(C)C2=O
< 4.00

* * *

target: E. coli pol I (Escherichia coli, UniProt P00582)
Sequence (P00582 324-928): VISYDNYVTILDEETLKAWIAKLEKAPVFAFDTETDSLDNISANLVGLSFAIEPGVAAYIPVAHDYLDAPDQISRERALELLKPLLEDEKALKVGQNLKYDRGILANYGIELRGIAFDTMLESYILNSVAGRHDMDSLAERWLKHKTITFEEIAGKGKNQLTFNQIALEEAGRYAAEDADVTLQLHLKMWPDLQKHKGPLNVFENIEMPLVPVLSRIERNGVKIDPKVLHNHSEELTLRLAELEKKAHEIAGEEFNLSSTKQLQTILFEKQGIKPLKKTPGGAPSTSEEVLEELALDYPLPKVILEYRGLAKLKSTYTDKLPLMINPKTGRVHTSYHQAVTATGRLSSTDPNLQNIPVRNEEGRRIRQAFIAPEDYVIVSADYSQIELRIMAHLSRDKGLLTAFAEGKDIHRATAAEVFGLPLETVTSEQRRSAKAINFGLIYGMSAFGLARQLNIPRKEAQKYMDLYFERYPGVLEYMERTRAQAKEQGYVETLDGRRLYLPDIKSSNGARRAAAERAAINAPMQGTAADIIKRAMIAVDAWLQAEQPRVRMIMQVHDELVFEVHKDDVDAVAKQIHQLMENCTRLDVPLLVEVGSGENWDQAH
pIC50: −log10 of the molar value.
Measure name: pIC50

State pIC50 on E. coli pol I (Escherichia coli, UniProt P00582). Entry: CCCCCCCC/C=C\CCCCCCCC(=O)Oc1cccc2c1C(=O)C=C(C)C2=O [2f, 5-O-oleoyl-2-methyl-1,4-naphthoquinone]
< 4.00
